B1: Mineralocorticoid receptor, residues 600 to 675; numbered along this chain, P08235 (parent)
chain: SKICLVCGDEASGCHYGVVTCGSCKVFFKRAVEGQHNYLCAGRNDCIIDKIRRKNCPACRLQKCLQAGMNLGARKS

Variants of: B1
ASSAY_PROTOCOL: abundance fitness (aPCA) (normalised: wild type 0, dead -1); higher = more abundant; growth selection in yeast, the domain comes from the species named
COND: Homo sapiens
As shown below, each of these variants has a reported abundance fitness value.
Provide a numeric answer; units are not to be included.

# annotated cases, reported abundance fitness shown
SKICLVCGDEASGCHYGVVTCGSCKVFFKRAVEGQHNYLCAGRNDCIIDKIRRKICPACRLQKCLQAGMNLGARKS 0.009
SKICLVCGDEASGCHYGVVTCGSCKVFFKRAVEGQHNYLCAGRNDCIIDKIRRKNCPACRLQKCLQAGNNLGARKS -0.523
SKICLVCGDEASKCHYGVVTCGSCKVFFKRAVEGQHNYLCAGRNDCIIDKIRRKNCPACRLQKCLQAGMNLGARKS 0.019
SKICLACGDEASGCHYGVVTCGSCKVFFKRAVEGQHNYLCAGRNDCIIDKIRRKNCPACRLQKCLQAGMNLGARKS -0.051
SKICLVCGDEASGCHYGVVTCGSCKVFFKRAVEGQHNYLCAGRNDCIADKIRRKNCPACRLQKCLQAGMNLGARKS -0.074
SKICLVCGDEASGCHYGVVTCGSCKVFFKRAVEGQHNYLCAGRIDCIIDKIRRKNCPACRLQKCLQAGMNLGARKS -0.342
SKICLVCGDEASGCHYGVVTCGSCKVFFKRAVEGQHNYLCAGRNDCIIDKIRRKNCPACRLQKCLQAGMTLGARKS -0.04
SKICLVCGDEASGCHYGVVTCGSCKVFFKRAVEGQHNYLCAGRNDCIIDKIRRKNCPACRLQKCLQAGMNLGASKS -0.001

Exercise: Provide measured abundance fitness value, entry: SKICLVCCDEASGCHYGVVTCGSCKVFFKRAVEGQHNYLCAGRNDCIIDKIRRKNCPACRLQKCLQAGMNLGARKS
Key: -0.233

Exercise: Look up abundance fitness of SKICLVCGDEASGCHYGKVTCGSCKVFFKRAVEGQHNYLCAGRNDCIIDKIRRKNCPACRLQKCLQAGMNLGARKS and report it.
Key: -0.101

Exercise: Entry SKICLVCGDEASGCHYGVVTCGSCKVFFKRAVEGQHNYLCAGRNDCIIDKIRRKNCPACRLQKCLVAGMNLGARKS needs its abundance fitness filled in; supply it.
Key: -0.039

Exercise: Kindly indicate its recorded abundance fitness. Item: SKICLVCGDEASGCHYGVVTGGSCKVFFKRAVEGQHNYLCAGRNDCIIDKIRRKNCPACRLQKCLQAGMNLGARKS
Key: -1.03

Exercise: Read off the recorded abundance fitness for SKICLVCGDEASGCHYGVVTCGSCKVFFKRAVEGQHNYLCAGRNNCIIDKIRRKNCPACRLQKCLQAGMNLGARKS
Key: -0.045

Exercise: Using known records, supply abundance fitness for SKICLVCGDEASGCHYGVVTCGSCKVFFKRAVEGQHNYLIAGRNDCIIDKIRRKNCPACRLQKCLQAGMNLGARKS
Key: -0.759

Exercise: Answer with the recorded abundance fitness of SKICLVCGDVASGCHYGVVTCGSCKVFFKRAVEGQHNYLCAGRNDCIIDKIRRKNCPACRLQKCLQAGMNLGARKS only.
Key: -0.04

Exercise: Give abundance fitness for the following variant: SKICLVCGDEASGCHYGVVTCGSCWVFFKRAVEGQHNYLCAGRNDCIIDKIRRKNCPACRLQKCLQAGMNLGARKS
Key: -0.083

Exercise: Provide measured abundance fitness value, entry: SKICLVCGDEASGCHYGVVTCGSCKVFFKRAVEGQHNYLCAGRNDCIIDKIRRKNCPACRSQKCLQAGMNLGARKS
Key: -0.471
